Reference for the values: ChEMBL document CHEMBL1201862

- Test system: HOP-18
- ASSAY_OVERVIEW: NCI tumour cell line growth inhibition, 48 h
Active and inactive are the calls of the source. Rule as the data show it: active = GI50 up to about 1.1 µM and inactive = higher.
Recorded measurements of GI50, one per entry

{"COMPOUND": "COc1cc2c(c(OC)c1OC)-c1cccc(=O)cc1C(NC(C)=O)CC2 (configuration not stated)", "GI50": "> 100 µM (inactive)"}
{"COMPOUND": "CC(C)CC(N)C(=O)OCN1C(=O)C2C3C=CC(C2C1=O)C1C2C(=O)N(COC(=O)C(N)CC(C)C)C(=O)C2C31 (configuration not stated)", "GI50": "> 100 µM (inactive)"}
{"COMPOUND": "CCCCC1CC(c2ccc(Cl)cc2)=NO1 (configuration not stated)", "GI50": "> 100 µM (inactive)"}
{"COMPOUND": "O=C1c2ccccc2C(=O)c2c(NCCCNCCO)ccc(NCCCNCCO)c21", "GI50": "5.01 µM (inactive)"}
{"COMPOUND": "CC1Nc2ccccc2NC1C=C(C#N)C#N (configuration not stated)", "GI50": "20 µM (inactive)"}
{"COMPOUND": "COc1cccc2c1C(=O)c1c(O)c3c(c(O)c1C2=O)C[C@@](O)(C(C)=O)C[C@@H]3OC1CC(O)C(O)C(C)O1 (some centres not stated)", "GI50": "1.39 µM (inactive)"}

QUERY: For the compound COc1cc(OC(=O)c2c(O)cc(O)c(O)c2C)cc(C)c1C(=O)Oc1cc(C)c(C(=O)O)c(O)c1 , what GI50 is on record?
RESULT: > 100 µM (inactive)

QUERY: For the compound CCN(CC)C(=S)N/N=C(\C)c1ccccc1O , what GI50 is on record?
RESULT: 26.2 µM (inactive)

QUERY: For the compound CC(=O)NNc1nc(C)c(C(=O)/C=C/c2ccccc2Cl)s1 , what GI50 is on record?
RESULT: > 100 µM (inactive)

QUERY: For the compound Cn1c(=O)c(C2c3ccccc3Oc3c2c(=O)n(C)c2ccccc32)c(O)c2ccccc21 (configuration not stated) , what GI50 is on record?
RESULT: > 100 µM (inactive)

QUERY: For the compound O=c1c2ccccc2nc(-c2ccccc2)n1NC1OC(CO)C(O)C(O)C1O (configuration not stated) , what GI50 is on record?
RESULT: 1.46 µM (inactive)

QUERY: For the compound CCOC(=O)C(C(=O)OCC)c1cc(-c2cc3ccccc3o2)oc(=O)c1C#N , what GI50 is on record?
RESULT: 16 µM (inactive)

QUERY: For the compound CCOC(=O)c1cc2c(OCc3ccccc3)c(OC)cc3c2c(n1)N(c1ccc(OC)cc1)C(C)C3 (configuration not stated) , what GI50 is on record?
RESULT: > 50 µM (inactive)

QUERY: For the compound Cc1ccc2nc3c(C)cc(=O)cc-3sc2c1 , what GI50 is on record?
RESULT: 56.6 µM (inactive)

QUERY: For the compound O=c1c2ccccc2c(=O)n2n1-c1cccc(c1)CSSCc1cccc-2c1 , what GI50 is on record?
RESULT: > 10 µM (inactive)

QUERY: For the compound O=C1C(c2ccccc2)=C(c2ccccc2)C(c2ccc(Cc3ccc(C4=C(c5ccccc5)C(=O)C(c5ccccc5)=C4c4ccccc4)cc3)cc2)=C1c1ccccc1 , what GI50 is on record?
RESULT: > 100 µM (inactive)

QUERY: For the compound COc1ccccc1NC(=O)C1=C(C)NC(C)=C(C(=O)Nc2ccccc2OC)C1/C=C/c1ccccc1 , what GI50 is on record?
RESULT: > 100 µM (inactive)

* * *

Recorded measurements of GI50, one per entry
- Test system: HL-60
- ASSAY_OVERVIEW: NCI tumour cell line growth inhibition, 48 h
Activity calls are given as the source filed them. No stated cut-off is given here; in the data, active = GI50 up to about 1.1 µM and inactive = higher.

Record excerpt, results attached:
{"LINE_NOTATION": "O=C1C(O)=C(CCCc2ccc(Oc3ccccc3)cc2)C(=O)c2ccccc21", "GI50": "7.94 µM (inactive)"}
{"LINE_NOTATION": "O=C(CC(=O)c1ccccc1)C(=O)Nc1ccc(Cl)cc1", "GI50": "> 100 µM (inactive)"}
{"LINE_NOTATION": "O=C(Cc1ccccc1)N/N=C/c1ccccc1O", "GI50": "6.3 µM (inactive)"}

Now take the following compound into account.
QUERY: For the compound COc1ccc(S(=O)(=O)Nc2ccc(-c3csc(N4C(=O)/C(=C/c5ccccc5)N=C4c4ccccc4)n3)cc2)cc1Cl , what GI50 is on record?
RESULT: 24.6 µM (inactive)

* * *

- System: SK-MEL-28
- ASSAY_OVERVIEW: NCI tumour cell line growth inhibition, 48 h
The source made the active and inactive calls. Rule as the data show it: active = GI50 up to about 1.1 µM and inactive = higher.
The reply should be one of these categories: t for active, f for inactive

Solved cases below.
{"MOLECULE": "Cc1cccc(C(O)c2cccnc2)c1O (centres undefined)", "TARGET_OF_ASSAY": "SK-MEL-28", "CLASS_ASSIGNMENT": "f"}
{"MOLECULE": "COc1cc(C2c3cc4c(cc3[C@@H](N(C)C)[C@H]3COC(=O)C23)OCO4)cc(OC)c1O (some centres undefined)", "TARGET_OF_ASSAY": "SK-MEL-28", "CLASS_ASSIGNMENT": "f"}
{"MOLECULE": "CCOC(=O)C(C(=O)OCC)c1cc(-c2cc3ccccc3o2)oc(=O)c1C#N", "TARGET_OF_ASSAY": "SK-MEL-28", "CLASS_ASSIGNMENT": "f"}
{"MOLECULE": "CC(=O)c1c(C)n(C)c2c1nnc1ccccc12", "TARGET_OF_ASSAY": "SK-MEL-28", "CLASS_ASSIGNMENT": "f"}
{"MOLECULE": "NCc1ccc(O)c(O)c1", "TARGET_OF_ASSAY": "SK-MEL-28", "CLASS_ASSIGNMENT": "f"}
{"MOLECULE": "COc1ccc(S(=O)(=O)Nc2ccc(-c3csc(N4C(=O)/C(=C/c5ccccc5)N=C4c4ccccc4)n3)cc2)cc1Cl", "TARGET_OF_ASSAY": "SK-MEL-28", "CLASS_ASSIGNMENT": "f"}
{"MOLECULE": "COc1ccccc1N1C(=O)CS(=O)(=O)C1c1cccc(Oc2ccccc2)c1 (centres undefined)", "TARGET_OF_ASSAY": "SK-MEL-28", "CLASS_ASSIGNMENT": "f"}
{"MOLECULE": "Cc1cc(O)c2c(c1)C[C@@H](O)C1=C2C(=O)c2c(O)ccc(OC3CC(O)C(OC4CC(OC5CCC(OC6CC(O)C(OC7CC(OC8CCC(O)C(C)O8)C(O)C(C)O7)C(C)O6)C(C)O5)C(O)C(C)O4)C(C)O3)c2C1=O (some centres undefined)", "TARGET_OF_ASSAY": "SK-MEL-28", "CLASS_ASSIGNMENT": "t"}

Next item in the queue.
QUERY: Which outcome did this test record for the molecule C/C=C1\CNC1C(=O)O (centres undefined) ?
RESULT: f

* * *

- Tested on: SF-295
- ASSAY_OVERVIEW: NCI tumour cell line growth inhibition, 48 h
Activity calls are given as the source filed them. Rule as the data show it: active = GI50 up to about 1.1 µM and inactive = higher.
The reply should be one of these categories: Y (active), N (inactive)

{"COMPOUND": "COCOc1ccc(C2(O)Oc3cc(OCOC)ccc3C2C)c(O)c1 (stereo not drawn)", "CLASS_ASSIGNMENT": "N"}

QUERY: Which outcome did this test record for the compound Cc1nc2sc3ccccc3n2c(=O)c1/N=N/c1ccc(Cl)cc1 ?
RESULT: N

* * *

Recorded measurements of GI50, one per entry
- Tested on: SNB-19
- ASSAY_OVERVIEW: NCI tumour cell line growth inhibition, 48 h
Activity calls are given as the source filed them. No stated cut-off is given here; in the data, active = GI50 up to about 1.1 µM and inactive = higher.

Record excerpt, results attached:
{"COMPOUND": "COc1cc(C2c3cc4c(cc3OC(O)C2C)OCO4)cc(OC)c1OC (centres undefined)", "TARGET_OF_ASSAY": "SNB-19", "GI50": "0.434 µM (active)"}
{"COMPOUND": "COc1ccccc1NC(=O)C1=C(C)NC(C)=C(C(=O)Nc2ccccc2OC)C1/C=C/c1ccccc1", "TARGET_OF_ASSAY": "SNB-19", "GI50": "> 100 µM (inactive)"}
{"COMPOUND": "Cc1ccc(S(=O)(=O)NC(=O)NC(CO)C(=O)O)cc1 (centres undefined)", "TARGET_OF_ASSAY": "SNB-19", "GI50": "> 100 µM (inactive)"}
{"COMPOUND": "COc1cccc2c1C(=O)c1c(O)c3c(c(O)c1C2=O)C[C@@](O)(C(=O)CO)CC3OC1CC(N(C)CCOCC(OC(C)=O)OC(C)=O)C(O)C(C)O1 (some centres undefined)", "TARGET_OF_ASSAY": "SNB-19", "GI50": "> 0.01 µM (active)"}
{"COMPOUND": "CC(C)(C)c1ccc(C(O)(c2ccc(C(C)(C)C)cc2)c2ccc(C(C)(C)C)cc2)cc1", "TARGET_OF_ASSAY": "SNB-19", "GI50": "> 100 µM (inactive)"}
{"COMPOUND": "C[C@]12CCCC(=O)C1(O)C[C@H](C(=O)O)CC2 (some centres undefined)", "TARGET_OF_ASSAY": "SNB-19", "GI50": "> 100 µM (inactive)"}

QUERY: For the compound CC1CCC23COC(=O)C2C(O)CCC3C1(C)CC(O)c1ccoc1 (centres undefined) , what GI50 is on record?
RESULT: > 100 µM (inactive)

QUERY: For the compound CC1OC(OC2C(OC(=O)[C@@H]3CC(C)(C)C[C@@H]4C5=CC[C@@H]6[C@@]7(C)C[C@H](O)[C@H](OC8OC(CO)C(O)C(O)C8O)[C@@](C)(CO)C7[C@H](O)C[C@@]6(C)[C@]5(C)C[C@@H](O)[C@H]43)OCC(O)C2O)C(O)C(O)C1O (some centres undefined) , what GI50 is on record?
RESULT: > 15 µM (inactive)

QUERY: For the compound Cc1cc(NS(=O)(=O)c2ccc(/N=N/c3c(O)c(C(=O)O)cc4ccccc34)cc2)nc(C)n1 , what GI50 is on record?
RESULT: > 100 µM (inactive)

QUERY: For the compound Cc1cccc(C(O)c2cccnc2)c1O (centres undefined) , what GI50 is on record?
RESULT: > 100 µM (inactive)

QUERY: For the compound COC(=O)NC(=O)c1cn(C2OC(CO)C(O)C2O)c(=O)[nH]c1=O (centres undefined) , what GI50 is on record?
RESULT: > 100 µM (inactive)

QUERY: For the compound O=c1oc2ccc([N+](=O)[O-])cc2c(Nc2ccc3c(c2)Sc2ccccc2O3)c1[N+](=O)[O-] , what GI50 is on record?
RESULT: 17.9 µM (inactive)

QUERY: For the compound COC(=O)c1cccc(OC)c1C#Cc1c(OC)cccc1OC , what GI50 is on record?
RESULT: > 100 µM (inactive)

QUERY: For the compound OCCN(CCO)c1cccc(N(CCO)CCO)c1 , what GI50 is on record?
RESULT: 39.2 µM (inactive)

QUERY: For the compound C=CC(=O)N1C/C(=C\c2ccc(N(C)C)cc2)C(=O)/C(=C/c2ccc(N(C)C)cc2)C1 , what GI50 is on record?
RESULT: > 100 µM (inactive)

QUERY: For the compound Cc1cccc2c1[C@]13OC(C)[C@]4(C)CC5OC(=O)[C@@]1(C)[C@@H]5[C@]34C(=O)O2 (some centres undefined) , what GI50 is on record?
RESULT: > 100 µM (inactive)

QUERY: For the compound O=C(Cc1ccccc1)N/N=C/c1ccccc1O , what GI50 is on record?
RESULT: 33.1 µM (inactive)

QUERY: For the compound Cc1ccc(N(C(=O)Nc2ccc(F)c(Cl)c2)C2=NCC(C)S2)cc1 (centres undefined) , what GI50 is on record?
RESULT: > 100 µM (inactive)

QUERY: For the compound COCCN1C2=CCCCC2=Nc2c(N)nc(N)nc21 , what GI50 is on record?
RESULT: > 100 µM (inactive)
